Data provenance: patent US8314092B2

Sequence of the target: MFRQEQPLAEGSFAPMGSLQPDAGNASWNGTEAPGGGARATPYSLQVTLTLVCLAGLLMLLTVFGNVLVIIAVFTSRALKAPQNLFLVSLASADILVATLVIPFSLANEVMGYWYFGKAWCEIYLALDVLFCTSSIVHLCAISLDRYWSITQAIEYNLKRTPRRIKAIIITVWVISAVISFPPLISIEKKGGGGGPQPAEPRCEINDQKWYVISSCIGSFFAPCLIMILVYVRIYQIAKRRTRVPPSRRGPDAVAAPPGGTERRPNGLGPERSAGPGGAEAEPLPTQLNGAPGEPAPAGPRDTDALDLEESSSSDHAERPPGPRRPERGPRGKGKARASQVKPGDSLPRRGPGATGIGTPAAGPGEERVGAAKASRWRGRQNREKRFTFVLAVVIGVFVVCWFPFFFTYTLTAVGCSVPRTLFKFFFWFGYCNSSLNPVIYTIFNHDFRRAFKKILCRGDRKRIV
Counter-ions that a name gives are not always drawn.
Catalogue of Ki readings, one per entry.

- COMPOUND: "Cc1cc2n(c1)Cc1cc(Cl)ccc1N=C2N1CCN(CC(C)(C)C(=O)O)CC1 [Example 1]"
  Ki: "> 9.03 µM"
- COMPOUND: "Cc1cc2n(c1)Cc1cc(Cl)ccc1N=C2N1CCN(CC(C)(C)C(=O)O)CC1 [Example 13, dihydrochloride]"
  Ki: "> 8.47 µM"
